- measured-on: p52p52 homodimer (Homo sapiens, UniProt Q00653 4-332)
- Sequence: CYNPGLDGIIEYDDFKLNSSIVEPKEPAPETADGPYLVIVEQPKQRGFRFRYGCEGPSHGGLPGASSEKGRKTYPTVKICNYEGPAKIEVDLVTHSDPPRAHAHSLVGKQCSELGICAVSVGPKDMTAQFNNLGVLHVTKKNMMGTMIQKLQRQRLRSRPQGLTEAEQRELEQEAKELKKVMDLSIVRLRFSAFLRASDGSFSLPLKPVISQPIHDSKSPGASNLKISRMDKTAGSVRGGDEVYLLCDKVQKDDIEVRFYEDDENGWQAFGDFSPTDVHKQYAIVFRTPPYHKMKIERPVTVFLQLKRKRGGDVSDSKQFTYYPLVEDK
- run-description: protein binding microarray; high values mean tight binding
- measurement-conditions: dsDNA, one strand shown
Response key: Met means binding signal >= -0.1 z-score; Not met means binding signal < -0.1 z-score.

Reference set (5 entries):
monomer-sequence: GGATTCATCCT
measured-on: p52p52 homodimer (Homo sapiens, UniProt Q00653 4-332)
discrete-label: Not met
//
monomer-sequence: AAGAGCATCCT
measured-on: p52p52 homodimer (Homo sapiens, UniProt Q00653 4-332)
discrete-label: Not met
//
monomer-sequence: CGGAAATTCCC
measured-on: p52p52 homodimer (Homo sapiens, UniProt Q00653 4-332)
discrete-label: Met
//
monomer-sequence: GAGAGGACCCC
measured-on: p52p52 homodimer (Homo sapiens, UniProt Q00653 4-332)
discrete-label: Not met
//
monomer-sequence: AGGTTTATCCT
measured-on: p52p52 homodimer (Homo sapiens, UniProt Q00653 4-332)
discrete-label: Not met

Quick check, binding signal >= -0.1 z-score? AGATAAGTCCC
Met

Record AGATGGTCCCC ; criterion: binding signal no lower than -0.1 z-score. Met?
Met

* * *

- measured-on: C-Rel subunit;p52 subunit (Homo sapiens;Homo sapiens, UniProt Q04864;Q00653 1-285;4-332)
- Sequence 1: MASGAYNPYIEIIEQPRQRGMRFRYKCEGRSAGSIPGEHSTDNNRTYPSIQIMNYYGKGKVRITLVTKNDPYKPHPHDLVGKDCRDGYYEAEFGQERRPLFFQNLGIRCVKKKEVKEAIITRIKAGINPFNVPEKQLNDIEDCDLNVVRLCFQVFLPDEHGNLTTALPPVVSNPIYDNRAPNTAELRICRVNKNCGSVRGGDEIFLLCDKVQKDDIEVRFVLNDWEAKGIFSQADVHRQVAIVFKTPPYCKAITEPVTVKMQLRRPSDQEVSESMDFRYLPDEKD
- Sequence 2: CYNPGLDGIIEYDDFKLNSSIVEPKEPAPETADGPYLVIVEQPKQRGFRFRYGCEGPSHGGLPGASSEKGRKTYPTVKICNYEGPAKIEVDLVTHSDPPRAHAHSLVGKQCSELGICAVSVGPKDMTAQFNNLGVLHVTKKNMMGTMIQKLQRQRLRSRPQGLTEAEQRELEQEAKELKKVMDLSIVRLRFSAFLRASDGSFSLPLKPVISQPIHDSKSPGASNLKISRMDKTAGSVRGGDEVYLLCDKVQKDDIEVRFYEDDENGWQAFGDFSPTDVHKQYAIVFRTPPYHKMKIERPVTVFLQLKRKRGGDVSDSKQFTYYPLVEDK
- run-description: protein binding microarray; high values mean tight binding
- measurement-conditions: dsDNA, one strand shown
# binarize binding signal: threshold 0.8 z-score inclusive, high side 1 (yes), low side 0 (no)

These solved cases illustrate the format of a correct answer.
monomer-sequence: CAATAACTCCC
measured-on: C-Rel subunit;p52 subunit (Homo sapiens;Homo sapiens, UniProt Q04864;Q00653 1-285;4-332)
discrete-label: 0 (no)
--
monomer-sequence: GGGGGAACCCC
measured-on: C-Rel subunit;p52 subunit (Homo sapiens;Homo sapiens, UniProt Q04864;Q00653 1-285;4-332)
discrete-label: 1 (yes)
--
monomer-sequence: GAGGGCTCCCC
measured-on: C-Rel subunit;p52 subunit (Homo sapiens;Homo sapiens, UniProt Q04864;Q00653 1-285;4-332)
discrete-label: 0 (no)

Given the entry GAGTAGTCCCT , answer whether its binding signal meets or surpasses 0.8 z-score.
0 (no)

Check this sequence for binding signal at or above 0.8 z-score: AAATGTATCCT
0 (no)

I'd appreciate it if you could say whether AGATTACCCCC has binding signal at least equal to 0.8 z-score.
1 (yes)

Item GAGAAGATCCC with binding signal of 0.8 z-score or above?
0 (no)

Form field: binding signal at least 0.8 z-score? Entry: AGGGATCTCCC
1 (yes)

Is the recorded value of binding signal equal to or greater than 0.8 z-score for this sequence? CGAAGTTCCCT
0 (no)

* * *

- measured-on: RELARELA (p65 homodimer) (Homo sapiens, UniProt Q04206 1-307)
- Sequence (Q04206 1-307): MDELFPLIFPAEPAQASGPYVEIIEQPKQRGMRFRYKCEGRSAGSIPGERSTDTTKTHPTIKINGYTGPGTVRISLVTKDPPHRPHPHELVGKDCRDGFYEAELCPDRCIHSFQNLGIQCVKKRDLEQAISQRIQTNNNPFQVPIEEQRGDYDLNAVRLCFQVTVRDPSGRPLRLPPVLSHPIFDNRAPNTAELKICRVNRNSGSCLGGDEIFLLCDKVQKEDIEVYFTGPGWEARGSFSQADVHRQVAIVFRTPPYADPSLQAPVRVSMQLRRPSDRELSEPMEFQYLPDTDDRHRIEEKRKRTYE
- run-description: protein binding microarray; high values mean tight binding
- measurement-conditions: dsDNA, one strand shown
Kindly note that classification relies on binding signal with these boundaries: low value: < -0.2 z-score; medium value: ≥ -0.2 z-score and < 0.1 z-score; high value: ≥ 0.1 z-score

Record excerpt, results attached:
monomer-sequence: CAGGAACTCCC
discrete-label: high value
//
monomer-sequence: AGAGGGACCCT
discrete-label: low value
//
monomer-sequence: GAAAGCTCCCC
discrete-label: medium value
//
monomer-sequence: GAGTGCTTCCC
discrete-label: high value
//
monomer-sequence: CAGGATCCCCT
discrete-label: low value

Categorize the following entry: GAATAAGTCCC
high value

Tag the class for CAAAGTACCCC
high value

Where would GGATACCCCCC land among the classes by reported binding signal?
high value

Category of CGAGGGTTCCC :
medium value

Could you tell me which band CAATGGTTCCT belongs to?
medium value

Kindly state the category for this sequence: CAGTAGACCCC
low value

GET /class?item= AAGTTGTTCCT
medium value

Kindly state the category for this sequence: AAGTACCTCCT
high value

Tag the class for GGAGATATCCT
low value

* * *

- measured-on: p52p52 homodimer (Homo sapiens, UniProt Q00653 4-332)
- Sequence: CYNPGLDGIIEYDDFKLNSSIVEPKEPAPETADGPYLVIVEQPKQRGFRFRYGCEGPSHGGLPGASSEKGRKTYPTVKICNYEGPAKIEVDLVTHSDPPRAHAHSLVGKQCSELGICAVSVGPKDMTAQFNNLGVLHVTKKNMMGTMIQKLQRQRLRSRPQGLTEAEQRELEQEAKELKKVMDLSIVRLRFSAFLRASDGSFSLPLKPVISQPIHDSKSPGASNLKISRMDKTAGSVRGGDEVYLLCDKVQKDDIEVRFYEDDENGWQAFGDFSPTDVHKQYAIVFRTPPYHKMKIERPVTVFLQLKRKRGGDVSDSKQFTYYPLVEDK
- run-description: protein binding microarray; high values mean tight binding
- measurement-conditions: dsDNA, one strand shown
The threshold is 0.9 z-score. Values of binding signal beneath it are tagged Satisfied; values meeting or exceeding it are tagged Not satisfied.

Study these solved cases before continuing.
monomer-sequence: AAATAAACCCT
measured-on: p52p52 homodimer (Homo sapiens, UniProt Q00653 4-332)
discrete-label: Satisfied
--
monomer-sequence: CGGGTATTCCT
measured-on: p52p52 homodimer (Homo sapiens, UniProt Q00653 4-332)
discrete-label: Not satisfied
--
monomer-sequence: CGAATCGCCCT
measured-on: p52p52 homodimer (Homo sapiens, UniProt Q00653 4-332)
discrete-label: Satisfied
--
monomer-sequence: AGGAATATCCC
measured-on: p52p52 homodimer (Homo sapiens, UniProt Q00653 4-332)
discrete-label: Satisfied
--
monomer-sequence: GAGGGATTCCT
measured-on: p52p52 homodimer (Homo sapiens, UniProt Q00653 4-332)
discrete-label: Satisfied

Please look at the following sequence next.
Problem: For the sequence GGAATACTCCC , is binding signal under 0.9 z-score?
Satisfied

* * *

- measured-on: RELA (p65) subunit of heterodimer;p52 subunit (Homo sapiens;Homo sapiens, UniProt Q04206;Q00653 1-307;4-332)
- run-description: protein binding microarray; high values mean tight binding
- measurement-conditions: dsDNA, one strand shown
// binding signal lookup, one value per entry
Answer with the value and then the unit.

monomer-sequence: GAGGGTTCCCT
binding signal: -0.0267 z-score
--
monomer-sequence: CGAGGCACCCT
binding signal: -0.854 z-score
--
monomer-sequence: GGAAGCTTCCT
binding signal: -0.759 z-score
--
monomer-sequence: GAAGACACCCC
binding signal: -0.316 z-score
--
monomer-sequence: GAAGAGTTCCC
binding signal: 0.0483 z-score
--
monomer-sequence: GGAAGTATCCT
binding signal: -0.877 z-score
--
monomer-sequence: GAGAAACCCCC
binding signal: 2 z-score
--
monomer-sequence: AAGTTCACCCC
binding signal: -0.0961 z-score

So, CAAGTAATCCC ? Its binding signal was -0.426 z-score

# binding signal of AGGAATGCCCT = -0.196 z-score

Measured binding signal, CGATATATCCC : -0.28 z-score

The measured binding signal associated with GAATGCCTCCT reads -0.961 z-score

Sample AGGTTTATCCT ; binding signal observed: -0.905 z-score

# credit: paper PMC3218832
